These data points were gathered from patent US20240400696A1.

Target: CD3
Sequence (P07766 23-126): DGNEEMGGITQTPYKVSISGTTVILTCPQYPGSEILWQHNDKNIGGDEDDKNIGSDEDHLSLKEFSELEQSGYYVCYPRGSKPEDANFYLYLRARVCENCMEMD
Test: Octet, crude lysate
List of Kd values.

>  <binder>
AC3368 (bispecific antibody, V domains shown) VH: EVQLLESGGGIVQPGGSLKLSCAASGFTFNTYAMNWVRQAPGKGLEEVARIRSKYNNYATYYADSVKDRFTISRDDSKNTVYLQMNNLKTEDTAVYYCVRHENFGNSYVSWFAHWGQGTLVTVSS VL: ELVVTQEPSLTVSPGGTVTLTCRSSNGAVTSSNYANWVQQKPGQAPRGLIGGTNKRAPGTPARFSGSLLGGKAALTLSGVQPEDEAVYYCALWYPNLWVFGGGTKLTVL

>  <Kd, nM>
18.1

$$$$
>  <binder>
AC3428 (bispecific antibody, V domains shown) VH: EVQLLESGGGIVQPGGSLKLSCAASGFTFNTYAMNWVRQAPGKGLEWVARIRSKYNNYATYYADSVKDRFTISRDDSKNTVYLQMNELKTEDTAVYYCVRHENFGNSYVSWFAHWGQGTLVTVSS VL: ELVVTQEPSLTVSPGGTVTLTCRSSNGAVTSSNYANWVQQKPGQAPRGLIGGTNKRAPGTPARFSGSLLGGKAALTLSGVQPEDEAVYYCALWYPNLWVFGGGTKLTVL

>  <Kd, nM>
5.9

$$$$
>  <binder>
AC3421 (bispecific antibody, V domains shown) VH: EVQLLESGGGIVQPGGSLKLSCAASGFTFNTYAMNWVRQAPGKGLEWVARIRSKYNNYATYWADSVKDRFTISRDDSKNTVYLQMNNLKTEDTAVYYCVRHENFGNSYVSWFAHWGQGTLVTVSS VL: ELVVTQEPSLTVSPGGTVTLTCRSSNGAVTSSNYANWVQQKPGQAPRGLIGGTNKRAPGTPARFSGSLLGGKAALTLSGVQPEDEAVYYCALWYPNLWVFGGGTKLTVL

>  <Kd, nM>
37.2

$$$$
